- Tested on: Staphylococcus epidermidis
- ASSAY_NOTES: Antibacterial activity against methicillin-susceptible Staphylococcus epidermidis by CLSI M7-A7 broth microdilution method
- Assay type: functional
QUANTITY_NAME: MIC90 (µg/mL)
Your answer is read as µg/mL, so omit the unit and give the number.

Annotate the molecule CN[C@H](CC(C)C)C(=O)N[C@H]1C(=O)N[C@@H](CC(N)=O)C(=O)N[C@H]2C(=O)N[C@H]3C(=O)N[C@H](C(=O)N[C@H](C(=O)O)c4cc(O)cc(O)c4-c4cc3ccc4O)[C@H](O)c3ccc(c(Cl)c3)Oc3cc2cc(c3O[C@@H]2O[C@H](CO)[C@@H](O)[C@H](O)[C@H]2O[C@H]2C[C@](C)(N)[C@H](O)[C@H](C)O2)Oc2ccc(cc2Cl)[C@H]1O with its measured MIC90.
2

Annotate the molecule Cn1nnc(-c2ccc(-c3ccc(N4C[C@H](CO)OC4=O)cc3F)cn2)n1 with its measured MIC90.
0.5

Annotate the molecule CC(=O)NC[C@H]1CN(c2ccc(N3CCOCC3)c(F)c2)C(=O)O1 with its measured MIC90.
2

Annotate the molecule Cc1onc(-c2ccccc2)c1C(=O)N[C@@H]1C(=O)N2[C@@H]1SC(C)(C)[C@@H]2C(=O)O with its measured MIC90.
0.25
